Just for reference, PubChem BioAssay (NCI) is where these values come from.

- System: HL-60(TB) leukemia
- PROTOCOL_TEXT: NCI tumour cell line growth inhibition, 48 h; in the data active means GI50 below about 0.43 µM; inactive means the rest
Thanks in advance; please answer with one of these: true (active), false (inactive)

Some entries whose results are on file:
[[record]]
compound = "COc1ccc2[nH]c(=O)c(/C=C/C(=O)/C=C/c3ccc(O)c(OC)c3)cc2c1"
system_tested = "HL-60(TB) leukemia"
label_class = "false"

[[record]]
compound = "C/C1=C\\C/C=C(\\C)[C@H]2CC(CC/C(C)=C/CC1)[C@@](C)(CO)O2"
system_tested = "HL-60(TB) leukemia"
label_class = "false"

[[record]]
compound = "Cc1cc2c3ccccc3ccc2[n+]2ccccc12"
system_tested = "HL-60(TB) leukemia"
label_class = "false"

[[record]]
compound = "O=C1c2ccccc2-c2n[nH]c3cccc1c23"
system_tested = "HL-60(TB) leukemia"
label_class = "false"


Inquiry: Returns: the outcome recorded for Nc1ncnc2c(C3OC(CO)C(O)C3O)[nH]nc12 (stereo not given) in this assay.
Reply text: true

Inquiry: Returns: the outcome recorded for CCC[CH2][Ge]([CH2]CCC)([CH2]CCC)[O]C(=O)C(OC)c1ccccc1 (stereo not given) in this assay.
Reply text: false

Inquiry: Returns: the outcome recorded for CCCCCCCCCCCC[n+]1ccccc1 in this assay.
Reply text: true

----------
Known TGI of a selection of molecules
- Tested on: 786-0 renal
- PROTOCOL_TEXT: NCI tumour cell line growth inhibition, 48 h
Please respond with the number in µM and leave the unit unwritten.

[[record]]
smiles_structure = "CN(C)CCCNc1ccnc2cc([N+](=O)[O-])ccc12"
test_readout = "TGI"
measure_unit = "µM"
recorded_result = 28.8

[[record]]
smiles_structure = "COc1cc2c(c(OC)c1OC)-c1ccc(SC)c(=O)cc1[C@@H](NCc1cccc(C#N)c1)CC2"
test_readout = "TGI"
measure_unit = "µM"
recorded_result = 20.9


Inquiry: Param item = COc1cc(Cn2ccc3c2-c2oncc2CC3)cc(OC)c1 ; retrieve measured TGI.
Reply text: 37.1

----------
Known TGI of a selection of compounds
- System: ACHN renal
- PROTOCOL_TEXT: NCI tumour cell line growth inhibition, 48 h

Worked examples, 4 compounds total:
[[record]]
compound = "C[n+]1ccc(-c2cc[n+](C)cc2)cc1"
recorded_result = "> 100 µM"

[[record]]
compound = "O=C(/C=C/c1ccccc1O)c1cccnc1"
recorded_result = "> 100 µM"

[[record]]
compound = "CCOC(CI)O[C@@H]1C=C[C@H](OC(C)=O)C1 (some centres undefined)"
recorded_result = "> 100 µM"

[[record]]
compound = "CCN(CC)CCOC(=O)CCN1CC2CCC(CC2)C1"
recorded_result = "> 100 µM"


Inquiry: Param item = COc1ccc(C2CC(c3ccc4ccccc4c3O)=NN2C(C)=O)cc1OC (centres undefined) ; retrieve measured TGI.
Reply text: > 100 µM

Inquiry: Param item = CCCc1c(C(=O)OCC)[nH]c(-c2ccc(-c3[nH]c(C(=O)OCC)c(CCC)c3C(=O)OCC)o2)c1C(=O)OCC ; retrieve measured TGI.
Reply text: > 100 µM

Inquiry: Param item = CC1(O)CC23CC1CCC2(C)C12CCCC(C)(C(=O)O1)C2CC3O (centres undefined) ; retrieve measured TGI.
Reply text: > 100 µM

Inquiry: Param item = CN1CCCC1=NC#N ; retrieve measured TGI.
Reply text: > 100 µM

Inquiry: Param item = ICCC(c1ccccc1)(c1ccccc1)c1ccccc1 ; retrieve measured TGI.
Reply text: 24.8 µM

Inquiry: Param item = Cc1ccc2c(c1)SC(c1cc3c(cc1Br)OCO3)S2 (centres undefined) ; retrieve measured TGI.
Reply text: > 31.6 µM

Inquiry: Param item = Cn1c(=O)c2c(nc(N)n2C2OC(CO)C(O)C2O)n(C)c1=O (centres undefined) ; retrieve measured TGI.
Reply text: > 100 µM

Inquiry: Param item = COc1cc(Cn2ccc3c2-c2oncc2CC3)cc(OC)c1 ; retrieve measured TGI.
Reply text: 97.9 µM

Inquiry: Param item = CC[C@H](C)C1=C(O)[N@+]2([O-])Oc3ccc(-c4c(O)c(O)c(-c5ccc(OC(C)=O)cc5)c(OC(C)=O)c4OC(C)=O)cc3O[C@]2([C@@H](C)CC)C(=O)N1O ; retrieve measured TGI.
Reply text: > 50 µM

Inquiry: Param item = O=C(O)Cc1cccc2c1OC(c1ccccc1)C(C(=O)c1ccccc1)C2=O (centres undefined) ; retrieve measured TGI.
Reply text: > 100 µM

Inquiry: Param item = CC(C)C1SCc2nc3ccccc3n21 (centres undefined) ; retrieve measured TGI.
Reply text: > 100 µM

Inquiry: Param item = CC(=O)OC1C/C(C)=C/CCC(C)/C=C/C2(C)CCC(C(C)(C)O)C12 (centres undefined) ; retrieve measured TGI.
Reply text: > 100 µM

Inquiry: Param item = CCN(CC)CCn1c2cc3c(cc2c(=O)c2cccnc21)OCO3 ; retrieve measured TGI.
Reply text: > 10 µM

Inquiry: Param item = CCC1(C(=O)OC)CCc2c(OC)ccc(OC)c2C1=O (centres undefined) ; retrieve measured TGI.
Reply text: > 100 µM

Inquiry: Param item = COc1ccc2oc(=O)c3c(c2c1C)OC(C)(C)C=C3 ; retrieve measured TGI.
Reply text: > 100 µM

Inquiry: Param item = Cc1cccc(NC(=O)CCl)c1 ; retrieve measured TGI.
Reply text: > 10 µM

Inquiry: Param item = COc1ccc2nc(NC(=O)C(=O)C(C(=O)c3ccccc3-c3ccccc3)C3OC(=O)c4ccccc43)sc2c1 (centres undefined) ; retrieve measured TGI.
Reply text: 73.9 µM

Inquiry: Param item = C/C1=C\C/C=C(\C)[C@H]2CC(CC/C(C)=C/CC1)[C@@](C)(CO)O2 ; retrieve measured TGI.
Reply text: > 100 µM

Inquiry: Param item = CCC[CH2][Ge]([CH2]CCC)([CH2]CCC)[O]C(=O)C(OC)c1ccccc1 (centres undefined) ; retrieve measured TGI.
Reply text: > 75.2 µM

Inquiry: Param item = O=C(O)c1ccc(NCc2nc3cc4ccccc4cc3[nH]2)cc1 ; retrieve measured TGI.
Reply text: > 100 µM

Inquiry: Param item = NCCCCN(CCCN)Cc1ccccc1 ; retrieve measured TGI.
Reply text: > 100 µM

Inquiry: Param item = Nc1c(C(=O)c2cccc(C#CCN3CCOCC3)c2)cnn1-c1ccc(F)cc1 ; retrieve measured TGI.
Reply text: > 25 µM

Inquiry: Param item = Cc1c(C(=O)/C=C/c2ccccc2Cl)[n+](=O)c2ccccc2n1[O-] ; retrieve measured TGI.
Reply text: 31.9 µM

Inquiry: Param item = COc1cc2c(c(OC)c1OC)-c1ccc(SC)c(=O)cc1[C@@H](NCc1cccc(C#N)c1)CC2 ; retrieve measured TGI.
Reply text: > 75 µM

Inquiry: Param item = S=C=NCc1ccccc1 ; retrieve measured TGI.
Reply text: 12.7 µM

----------
- Test system: SK-MEL-2 melanoma
- PROTOCOL_TEXT: NCI tumour cell line growth inhibition, 48 h
Known TGI of a selection of molecules

Worked examples, 5 molecules total:
[[record]]
molecule = "COc1cc(C(=O)C/C(CCC(=O)Nc2ccc(Cl)cc2Cl)=N/NC(=O)C(N)=O)ccc1O"
recorded_result = "> 100 µM"

[[record]]
molecule = "C/C1=C\\C/C=C(\\C)[C@H]2CC(CC/C(C)=C/CC1)[C@@](C)(CO)O2"
recorded_result = "> 100 µM"

[[record]]
molecule = "CN1C(=O)[C@@H]2N(CSC2(C)C)C1=S"
recorded_result = "> 100 µM"

[[record]]
molecule = "CC1OC(OC2CCCc3c(O)c4c(c(O)c32)C(=O)c2ccccc2C4=O)CC(N)C1O (stereo unspecified)"
recorded_result = "3.21 µM"

[[record]]
molecule = "CC1(Br)C(=O)NC(=O)N(C2CC(N=[N+]=[N-])C(CO)O2)C1N=[N+]=[N-] (stereo unspecified)"
recorded_result = "> 100 µM"


Inquiry: Param item = NCCCCN(CCCN)Cc1ccccc1 ; retrieve measured TGI.
Reply text: > 100 µM

Inquiry: Param item = O=C(O)C[O][Sb][O]CC(=O)O ; retrieve measured TGI.
Reply text: > 100 µM

Inquiry: Param item = Cn1c(Sc2ccc(-c3cccnc3)n2C)ccc1-c1cccnc1 ; retrieve measured TGI.
Reply text: 30.1 µM

----------
- Test system: MDA-MB-231 breast
- PROTOCOL_TEXT: NCI tumour cell line growth inhibition, 48 h
TEST_READOUT: TGI (µM)
Please respond with the number in µM and leave the unit unwritten.

[[record]]
compound = "CC1=C(C#N)C2C(=C(N)Oc3ccccc32)C(N)=N1 (stereo unspecified)"
system_tested = "MDA-MB-231 breast"
recorded_result = 66.6

[[record]]
compound = "CC1(O)CC2(O)C=CC3=C(C(=O)c4cccc(O)c4C3=O)C2(O)C(=O)C1O (stereo unspecified)"
system_tested = "MDA-MB-231 breast"
recorded_result = 11.8

[[record]]
compound = "S=C=NCc1ccccc1"
system_tested = "MDA-MB-231 breast"
recorded_result = 5.14


Read the next record carefully.
Inquiry: Param item = CCN(C(=O)CCl)C(C)(C)C(SSSC(c1ccc(Cl)cc1)C(C)(C)N(CC)C(=O)CCl)c1ccc(Cl)cc1 (stereo unspecified) ; retrieve measured TGI.
Reply text: 14.6
